This collection of values is drawn from patent US20260042764A1.

# test.target: Avi-KRAS G12D (1-169) GppNHp/RAF1 RBD-3xFLAG (52-151) (Homo sapiens, UniProt P01116, G12D)
# Construct: Avi-KRAS G12D (1-169)
# Sequence (P01116 1-169 isoform P01116-2 G12D): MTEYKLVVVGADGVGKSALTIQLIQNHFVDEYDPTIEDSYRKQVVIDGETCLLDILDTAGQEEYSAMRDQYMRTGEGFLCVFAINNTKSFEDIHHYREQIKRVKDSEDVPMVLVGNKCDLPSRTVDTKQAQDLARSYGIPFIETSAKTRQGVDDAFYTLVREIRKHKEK
# run.description: Raf1-KRAS G12D-GppNHP disruption HTRF assay (Biological Example 1)
# Assay type: binding
# condition.set: KRAS G12D, GppNHp-loaded; class symbols
For each record, write down the corresponding IC50.

// below: answered molecules
{"molecule": "CCN(c1nc(OC[C@@]23CCCN2C[C@H](F)C3)nc2c(F)c(-c3ccc(F)c4sc(N)c(C#N)c34)c(C(F)(F)F)cc12)[C@H]1C[C@@H](C)N(C(=O)c2ccon2)C1 (atropisomer, axis not shown)", "observation.type": "IC50", "result": "100 to 1000 nM"}
{"molecule": "CC#CC(=O)N1CC[C@H](N(CC)c2nc(OC[C@@]34CCCN3C[C@H](F)C4)nc3c(F)c(-c4ccc(F)c5sc(N)c(C#N)c45)c(C(F)(F)F)cc23)C1 (atropisomer, axis not shown)", "observation.type": "IC50", "result": "< 100 nM"}

Q: Check the records and state IC50 for N#Cc1c(N)sc2c(F)ccc(-c3c(C(F)(F)F)cc4c(N5CCn6nc(C(=O)N7CCCC7)cc6C5)nc(OCC56CCCN5CC(F)C6)nc4c3F)c12 (stereo not drawn)
A: < 100 nM

###

# test.target: Avi-KRAS WT (1-169) GppNHp/RAF1 RBD-3xFLAG (52-151) (Homo sapiens, UniProt P01116)
# Construct: Avi-KRAS WT (1-169)
# Sequence (P01116 1-169 isoform P01116-2): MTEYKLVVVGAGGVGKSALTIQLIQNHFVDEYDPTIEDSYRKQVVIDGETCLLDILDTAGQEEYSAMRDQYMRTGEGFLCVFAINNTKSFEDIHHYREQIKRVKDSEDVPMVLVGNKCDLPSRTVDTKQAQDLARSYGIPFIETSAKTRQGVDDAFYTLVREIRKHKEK
# run.description: Raf1-KRAS WT-GppNHP disruption HTRF assay (Biological Example 1)
# Format: binding
# condition.set: KRAS WT-GppNHp/RAF1 RBD HTRF
observation.type: IC50

// below: answered compounds
{"compound": "CCN(c1nc(OC[C@@]23CCCN2C[C@H](F)C3)nc2c(F)c(-c3ccc(F)c4sc(N)c(C#N)c34)c(Cl)cc12)[C@@H]1CCN(C(C)=O)[C@H]1C [Compound 416]", "test.target": "Avi-KRAS WT (1-169) GppNHp/RAF1 RBD-3xFLAG (52-151) (Homo sapiens, UniProt P01116)", "IC50": "100 to 1000 nM"}
{"compound": "C[C@@H]1CN(c2nc(OC[C@@]34CCCN3C[C@H](F)C4)nc3c(F)c(-c4ccc(F)c5sc(N)c(C#N)c45)c(C(F)(F)F)cc23)Cc2cc(C(=O)N(C)C)nn21 [Compound 423]", "test.target": "Avi-KRAS WT (1-169) GppNHp/RAF1 RBD-3xFLAG (52-151) (Homo sapiens, UniProt P01116)", "IC50": "100 to 1000 nM"}
{"compound": "CCN(c1nc(OC[C@@]23CCCN2C[C@H](F)C3)nc2c(F)c(-c3ccc(F)c4sc(N)c(C#N)c34)c(C(F)(F)F)cc12)[C@H]1CCN(C(=O)N2CCCC2)C1 [Compound 542]", "test.target": "Avi-KRAS WT (1-169) GppNHp/RAF1 RBD-3xFLAG (52-151) (Homo sapiens, UniProt P01116)", "IC50": "< 100 nM"}
{"compound": "CCN(c1nc(OC[C@@]23CCCN2C[C@H](F)C3)nc2c(F)c(-c3ccc(F)c4sc(N)c(C#N)c34)c(C(F)(F)F)cc12)[C@H]1CC(=O)N(C2CC2)C1 [Compound 496]", "test.target": "Avi-KRAS WT (1-169) GppNHp/RAF1 RBD-3xFLAG (52-151) (Homo sapiens, UniProt P01116)", "IC50": "1000 to 10000 nM"}

From here, focus on the item given below.
Q: Check the records and state IC50 for CN1CC(F)(F)C[C@H]1COc1nc(N2CC3CC(C2)O3)c2cc(C(F)(F)F)c(-c3ccc(F)c4sc(N)c(C#N)c34)c(F)c2n1 [Compound 498]
A: > 10000 nM

###

# test.target: Avi-KRAS G12R (1-169) GppNHp/RAF1 RBD-3xFLAG (52-151) (Homo sapiens, UniProt P01116, G12R)
# Construct: Avi-KRAS G12R (1-169)
# Sequence (P01116 1-169 isoform P01116-2 G12R): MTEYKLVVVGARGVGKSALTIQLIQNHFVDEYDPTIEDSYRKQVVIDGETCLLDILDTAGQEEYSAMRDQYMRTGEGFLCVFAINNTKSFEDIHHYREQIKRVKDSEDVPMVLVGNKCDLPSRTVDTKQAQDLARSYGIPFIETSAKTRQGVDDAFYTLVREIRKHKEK
# run.description: Raf1-KRAS G12R-GppNHP disruption HTRF assay (Biological Example 1)
# Type: binding
# condition.set: KRAS G12R, GppNHp-loaded; Table 11
pIC50: −log10 of the molar value.
observation.type: pIC50

{"compound": "C[C@@H](O)C1CCN(c2nc(OC[C@@]34CCCN3C[C@H](F)C4)nc3c(F)c(-c4ccc(F)c5sc(N)c(C#N)c45)c(C(F)(F)F)cc23)CC1 [Compound 49]", "pIC50": "6.00 to 7.00"}
{"compound": "CC(=O)N1CC[C@H](N(C)c2nc(OC[C@@H]3C[C@@H](F)CN3C)nc3c(F)c(-c4ccc(F)c5sc(N)c(C#N)c45)c(C(F)(F)F)cc23)[C@@H]1C [Compound 226]", "pIC50": "< 5.00"}
{"compound": "CN(c1nc(OC[C@@]23CCCN2C[C@H](F)C3)nc2c(F)c(-c3ccc(F)c4sc(N)c(C#N)c34)c(C(F)(F)F)cc12)[C@@H]1CCN(S(C)(=O)=O)C1 [Compound 95]", "pIC50": "6.00 to 7.00"}
{"compound": "N#Cc1c(N)sc2c(F)ccc(-c3c(C(F)(F)F)cc4c(N5CCOCC5)nc(OC[C@@]56CCCN5C[C@H](F)C6)nc4c3F)c12 (single isomer, unassigned) [Compound 198]", "pIC50": "6.00 to 7.00"}

Q: Check the records and state pIC50 for N#Cc1c(N)sc2c(F)ccc(-c3c(C(F)(F)F)cc4cnc(OC[C@@]56CCCN5C[C@H](F)C6)nc4c3F)c12 [Compound 213]
A: 6.00 to 7.00

###

# test.target: Avi-KRAS WT (1-169) GppNHp/RAF1 RBD-3xFLAG (52-151) (Homo sapiens)
# Construct: Avi-KRAS WT (1-169)
# run.description: Raf1-KRAS WT-GppNHP disruption HTRF assay (Biological Example 1)
# Format: binding
# condition.set: KRAS WT, GppNHp-loaded; class symbols
For each record, write down the corresponding IC50.

{"compound": "CCN1C[C@@H]2C[C@H](N(CC)c3nc(OC[C@@]45CCCN4C[C@H](F)C5)nc4c(F)c(-c5ccc(F)c6sc(N)c(C#N)c56)c(C(F)(F)F)cc34)CN2C1=O (atropisomer, axis not shown) [Compound 762]", "test.target": "Avi-KRAS WT (1-169) GppNHp/RAF1 RBD-3xFLAG (52-151) (Homo sapiens)", "IC50": "< 100 nM"}
{"compound": "CCN(c1nc(OC[C@@]23CCCN2C[C@H](F)C3)nc2c(F)c(-c3ccc(F)c4sc(N)c(C#N)c34)c(C(F)(F)F)cc12)[C@H]1CCN(C(=O)OC)[C@H]1C (atropisomer, axis not shown) [Compound 799]", "test.target": "Avi-KRAS WT (1-169) GppNHp/RAF1 RBD-3xFLAG (52-151) (Homo sapiens)", "IC50": "100 to 1000 nM"}
{"compound": "CCN(c1nc(OC[C@@]23CCCN2C[C@H](F)C3)nc2c(F)c(-c3ccc(F)c4sc(N)c(C#N)c34)c(C(F)(F)F)cc12)[C@H]1CCN(C(=O)N2CC3(CC3)C2)C1 (atropisomer, axis not shown) [Compound 793]", "test.target": "Avi-KRAS WT (1-169) GppNHp/RAF1 RBD-3xFLAG (52-151) (Homo sapiens)", "IC50": "< 100 nM"}
{"compound": "CCN(c1nc(OC[C@@]23CCCN2C[C@H](F)C3)nc2c(F)c(-c3ccc(F)c4sc(N)c(C#N)c34)c(C(F)(F)F)cc12)[C@H]1CCN(C(=O)C2C[C@@H]2C)C1 (stereo partly drawn) [Compound 604]", "test.target": "Avi-KRAS WT (1-169) GppNHp/RAF1 RBD-3xFLAG (52-151) (Homo sapiens)", "IC50": "< 100 nM"}
{"compound": "CCN(c1nc(OC[C@@]23CCCN2C[C@H](F)C3)nc2c(F)c(-c3ccc(F)c4sc(N)c(C#N)c34)c(C(F)(F)F)cc12)[C@H]1CC(=O)N(CCF)C1 (atropisomer, axis not shown) [Compound 635]", "test.target": "Avi-KRAS WT (1-169) GppNHp/RAF1 RBD-3xFLAG (52-151) (Homo sapiens)", "IC50": "< 100 nM"}

Hey, can you go through the list below and give me IC50 for every item?
1. CCN(c1nc(OC[C@]23C[C@@H](F)CN2CC2(CC2)C3)nc2c(F)c(-c3ccc(F)c4sc(N)c(C#N)c34)c(C(F)(F)F)cc12)[C@H]1CCN(C(=O)C(C)C)C1 [Compound 566]
2. CCC(=O)N1C[C@@H](N(CC)c2nc(OC[C@@]34CCCN3C[C@H](F)C4)nc3c(F)c(-c4ccc(F)c5sc(N)c(C#N)c45)c(C(F)(F)F)cc23)C[C@H]1COC (atropisomer, axis not shown) [Compound 649]
3. CO[C@@H](C)C(=O)N1CC[C@H](N(c2nc(OC[C@@]34CCCN3C[C@H](F)C4)nc3c(F)c(-c4ccc(F)c5sc(N)c(C#N)c45)c(C(F)(F)F)cc23)C2CC2)C1 (atropisomer, axis not shown) [Compound 811]
4. CN(c1nc(OC[C@@]23CCCN2C[C@H](F)C3)nc2c(F)c(-c3ccc(F)c4sc(N)c(C#N)c34)c(C(F)(F)F)cc12)[C@H]1CC(=O)N(C2CC2)C1 (atropisomer, axis not shown) [Compound 616]

A:
1: 100 to 1000 nM; 2: 100 to 1000 nM; 3: 100 to 1000 nM; 4: < 100 nM
